Reported EC50 (read off the curve) values for the following binders.
Biological target: T1, human CD22 domain1-4-His (human, UniProt P20273 20-425)
T1 construct: also called hCD22 domain1-4-His; not shown: His tag
T1 sequence: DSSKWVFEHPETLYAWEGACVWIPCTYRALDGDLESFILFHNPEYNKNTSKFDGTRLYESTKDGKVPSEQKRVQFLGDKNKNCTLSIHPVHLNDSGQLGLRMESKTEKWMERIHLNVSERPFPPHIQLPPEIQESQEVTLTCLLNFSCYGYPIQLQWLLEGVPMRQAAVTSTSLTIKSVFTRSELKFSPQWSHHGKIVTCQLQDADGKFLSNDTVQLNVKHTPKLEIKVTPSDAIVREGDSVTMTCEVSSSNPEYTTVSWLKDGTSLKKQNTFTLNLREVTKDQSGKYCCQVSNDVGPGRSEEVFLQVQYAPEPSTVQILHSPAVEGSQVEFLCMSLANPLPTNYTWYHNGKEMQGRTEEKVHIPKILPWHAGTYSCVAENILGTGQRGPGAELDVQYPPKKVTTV
Assay: ELISA, human CD22 domain1-4-His coated
test readout: EC50 (read off the curve)

| binder | obs value |
| --- | --- |
| F1.120.15 (antibody, human IgG1, kappa, V domains shown, Human-murine chimeric IgG1, kappa) VH: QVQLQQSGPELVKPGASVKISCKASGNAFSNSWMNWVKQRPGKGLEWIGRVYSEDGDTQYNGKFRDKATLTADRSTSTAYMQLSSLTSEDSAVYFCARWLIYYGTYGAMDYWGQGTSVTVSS VL: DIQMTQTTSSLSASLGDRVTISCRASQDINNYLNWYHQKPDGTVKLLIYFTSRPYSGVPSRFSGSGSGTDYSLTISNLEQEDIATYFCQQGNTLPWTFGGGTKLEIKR | ~0.2 nM |
| F1.216.2 (antibody, human IgG1, kappa, V domains shown, Human-murine chimeric IgG1, kappa) VH: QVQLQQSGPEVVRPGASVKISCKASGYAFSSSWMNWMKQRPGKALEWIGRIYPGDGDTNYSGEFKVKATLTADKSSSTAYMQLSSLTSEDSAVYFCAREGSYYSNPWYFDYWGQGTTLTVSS VL: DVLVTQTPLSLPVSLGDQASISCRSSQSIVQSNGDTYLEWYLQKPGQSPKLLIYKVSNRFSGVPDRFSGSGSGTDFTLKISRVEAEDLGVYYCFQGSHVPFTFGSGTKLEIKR | ~0.02 nM |
| F1.7.6 (antibody, human IgG1, kappa, V domains shown, Human-murine chimeric IgG1, kappa) VH: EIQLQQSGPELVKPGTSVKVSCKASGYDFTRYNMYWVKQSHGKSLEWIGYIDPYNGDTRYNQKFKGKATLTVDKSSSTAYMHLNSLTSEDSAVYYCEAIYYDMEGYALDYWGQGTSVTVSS VL: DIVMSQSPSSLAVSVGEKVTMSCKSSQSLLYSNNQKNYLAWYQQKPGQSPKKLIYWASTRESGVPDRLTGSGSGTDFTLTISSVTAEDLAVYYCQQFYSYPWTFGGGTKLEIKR | ~0.03 nM |
| F1.224.1 (antibody, human IgG1, kappa, V domains shown, Human-murine chimeric IgG1, kappa) VH: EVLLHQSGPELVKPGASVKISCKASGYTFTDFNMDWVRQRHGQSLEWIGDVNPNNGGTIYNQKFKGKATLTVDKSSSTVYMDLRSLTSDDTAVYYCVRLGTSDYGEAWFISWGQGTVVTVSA VL: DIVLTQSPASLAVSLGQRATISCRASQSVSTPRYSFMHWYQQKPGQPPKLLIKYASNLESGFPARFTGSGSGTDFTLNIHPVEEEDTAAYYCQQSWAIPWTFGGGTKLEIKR | ~0.03 nM |
| F2.55.1 (antibody, human IgG1, lambda, V domains shown, Human-murine chimeric IgG1, lambda) VH: QVTLKESGPGILQPSQTLSLTCSFSGFSLSTFPLGVGWIRQPSGKGLEWLAHVWWNDDDYYNPALKSRLTISKDTSNTRVFLSVASVDTAETATYYCARLNWDRWYFDVWGTGTTVTVSS VL: QLVLTQSSSASFSLGASAKLTCTLSSQHSAYTVEWYQQQPLKPPKYVMELKKDGSHSTGDGIPDRFSGSSSGADRYLSISNIQPEDEAIYICGVGDTVKEQFVFGGGTKVTVLG | ~0.1 nM |
